Molecular target: human GLP-1 receptor (human, UniProt P43220 24-463)
Assay: cell-based or functional assay
Bridges are numbered along the chain shown (N, C = ends). Where no end group is shown, it is not given here. [ ]: non-standard residue; d: D form. Aib = CC(C)(N)C(=O)O
# In vitro activity compared with native peptide (%) vs. GLP-1 annotations
Return type: number; implicit unit %.

Entry H[Aib]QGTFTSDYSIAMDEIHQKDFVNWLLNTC (bridge 16-20) [Triple agonist of SEQ ID NO: 57] , In vitro activity compared with native peptide (%) vs. GLP-1 reported as 11.7

Entry Y[Aib]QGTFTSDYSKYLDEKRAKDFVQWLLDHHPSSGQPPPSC (bridge 16-20) [Triple agonist of SEQ ID NO: 76] , In vitro activity compared with native peptide (%) vs. GLP-1 reported as 10.3

Entry Y[Aib]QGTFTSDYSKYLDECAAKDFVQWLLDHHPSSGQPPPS (also: ring formation, positions not given here) [Triple agonist of SEQ ID NO: 67] , In vitro activity compared with native peptide (%) vs. GLP-1 reported as 28.5
